- Method: PSAC antagonists in infected red cells, primary screen, cell-based, P. falciparum Indochina, OD700, 2 h (AID 1155);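 note: lysis reports solute entry through the parasite surface anion channel PSAC; channel blockers reduce lysis of infected cells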
- Particulars: P. falciparum Indochina infected erythrocytes, osmotic lysis OD700, called active from +8 up or from −8 down
Calls of active or inactive are those of the source.
Use one of these outcomes when replying: label 1 = active, label 0 = inactive

>>> answer_label("CN1C2C=C(CCCO)C(C3C(=O)N(C(N)=O)C(=O)C32)C1c1cccs1 (configuration not stated)")
"label 0"
>>> answer_label("CC(C)(C)OC(=O)CC[C@]1(C(=O)O)N=C(c2ccc(OCCCO)cc2)O[C@H]1c1ccccc1CN=[N+]=[N-]")
"label 0"
>>> answer_label("COCCOC(=O)N1C(=O)[C@@]2(c3ccccc31)[C@H](c1ccc(OCCO)cc1)N1[C@H](c3ccccc3)[C@H](c3ccccc3)OC(=O)[C@H]1[C@@H]2C(=O)Nc1nc2ccccc2s1")
"label 0"
>>> answer_label("CC=CC(O)C1C=CC2C(=O)N(c3ccccc3)C(=O)C2N1Nc1ccc([N+](=O)[O-])cc1 (configuration not stated)")
"label 0"

Next item in the queue.
## Input Which outcome did this test record for the molecule "Cc1c(NC(=O)/C(C#N)=C/C=C/c2ccc(N(C)C)cc2)c(=O)n(-c2ccccc2)n1C" ?
## Output label 0

====

- Method: modulators of HCV replicon luciferase signal, primary screen, HCV replication inhibitor project, Huh7 cells, luciferase reporter (AID 1109);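 note: huh7 hepatoma cells harbouring a luciferase neomycin HCV replicon reporter; luciferase luminescence as measure of HCV replicon replication; test concentration not given here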
- Particulars: 48 h, higher = more signal
Attribute: z-score
Give the value as a plain number.

Example results:
>>> assay_result("C[C@H]1ON(c2ccc(C(=O)OC(C)(C)C)cc2)[C@@H](c2ccc(O)cc2)[C@@H]1C(=O)N1C(=O)OC[C@@H]1c1ccccc1")
-3.09
>>> assay_result("CCCNC(=O)[C@@]1(c2ccc([N+](=O)[O-])cc2)CC(=O)N(C2CCCCC2)[C@@H]1c1ccc(CO)cc1I")
-2.64
>>> assay_result("C=CC[C@@]1(C(=O)N2CCCCC2)N=C(c2ccc(OCCCO)cc2)O[C@@H]1c1ccccc1")
-1.91
>>> assay_result("COc1cc(CO)cc(I)c1O[C@H]1C=C(C(=O)NCCO)C[C@@H](NCc2ccccc2F)[C@@H]1O")
-2.62
>>> assay_result("[N-]=[N+]=Nc1ccccc1[C@H]1OC(c2ccc(OCCCO)cc2)=N[C@@]1(CCS(=O)(=O)c1ccccc1)C(=O)N1CCCCC1")
-1.05
>>> assay_result("CC(C)(C)OC(=O)CC[C@]1(C(=O)NCCN2CCOCC2)N=C(c2ccc(OCCCO)cc2)O[C@H]1c1ccccc1N=[N+]=[N-]")
1.08
>>> assay_result("NC(=O)N1C(=O)C2C(C1=O)C1C=C(c3ccc(CO)cc3)C2C(C2CC2)N1Cc1sc2ccccc2c1Cl (stereo not drawn)")
-1.39

## Input Query (compound): O=C1NC(=O)C2C1C=CC(C(O)c1c(F)cccc1Cl)N2Nc1ccccn1 (stereo not drawn) ; field requested: z-score
## Output -0.469

====

- Method: compound binding in COS7 lysate, probe aLAP1, primary screen, cell lysate, small-molecule microarray (AID 1124);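 note: lysate comes from COS7 cells expressing LAP1 and is applied at 0.3 µg/mL; score merges spot fluorescence near 667 nm with signal-to-noise over triplicate slides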
- Particulars: probe aLAP1, fluorescence, higher = more signal
Label class 1 for high-side composite z-score (at or above -0.02) and class 0 for low-side composite z-score (below it).

Observe how each entry below is paired with its result.
>>> answer_label("CC(C)NC(=O)[C@@]1(C)c2ccccc2C(=O)N(C(C)C)[C@H]1c1ccc(CO)cc1")
"class 0"
>>> answer_label("NC(=O)NCC#Cc1ccc2c(c1)[C@]1(C(=O)N2)[C@H](C(=O)Nc2nc3ccccc3s2)[C@H]2C(=O)O[C@H](c3ccccc3)[C@H](c3ccccc3)N2[C@@H]1c1ccc(O)cc1")
"class 1"
>>> answer_label("COCCOC(=O)N1C(=O)[C@@]2(c3cc(C#CC4=CCCCC4)ccc31)[C@H](c1ccccc1OCCO)N1[C@H](c3ccccc3)[C@H](c3ccccc3)OC(=O)[C@H]1[C@@H]2C(=O)N1CCc2cc(OC)c(OC)cc2C1")
"class 1"

## Input For this compound, is measured composite z-score -0.02 or higher? C=CCC(OC(C)=O)[C@@H]1[C@@H](N(Cc2ccc(-c3ccccc3)cc2)C(=O)c2cccc3ccccc23)c2cc(OCCCO)ccc2N1C(=O)Cc1ccc2ccccc2c1 (stereo partly specified)
## Output class 1

## Input Kindly determine if composite z-score recorded for CCOc1cc(C(O)C2C=CC3C(=O)N(C4CCCCC4)C(=O)C3N2Nc2ccc(OC)cc2)ccc1O (stereo unspecified) is above or exactly -0.02.
## Output class 1

## Input # bool: composite z-score of "CCOC(=O)C[C@H]1[C@H](OC(=O)Cc2ccc3c(c2)OCO3)[C@@H](NC(=O)Cc2ccc(OC)cc2)c2cc(OCCCO)ccc2N1C(=O)c1ccccc1" >= -0.02
## Output class 0
